# System: Vero E6 infected with SARS-CoV-2
# Test Protocol: inhibition of SARS-CoV-2 cytopathic effect; higher = more antiviral protection, active = above 15
# Experimental Context: 10000 nM; 48 h
Measured Attribute: inhibition of SARS-CoV-2 cytopathic effect (%)

| Compound | Reading |
| --- | --- |
| CC(=O)N(OCc1ccccc1)[C@@H]1c2cc(C#N)ccc2OC(C)(C)[C@H]1O | 2.53 |
| C=C1CC[C@H](O)C/C1=C/C=C1\CCC[C@]2(C)[C@@H]([C@H](C)CCCC(C)C)CC[C@@H]12 | 0.91 |
| CCC(C)(Oc1ccc(C2(c3ccc(OC(C)(CC)C(=O)O)cc3)CCCCC2)cc1)C(=O)O (centres undefined) [clinofibrate] | 0.41 |
| NC(=O)c1nc(F)cnc1O [Favipiravir] | -0.22 |
